Would you kindly list Kd for each of these compounds?
Target: UniProt P01024
Positions of bridges follow the written chain, without caps; N, C: chain ends. Non-standard residues stand in square brackets, D forms with d. Residues, ends and D or L forms follow the SMILES beside them. Trp(1-Me) = Cn1cc(C[C@H](N)C(=O)O)c2ccccc21
Phrase the answer as number then unit, nothing more needed.

Below: 2 compounds and their reported Kd.
| Compound | Quantity Measured | Test Result |
| --- | --- | --- |
| CC[C@H](C)[C@H](NC(C)=O)C(=O)N[C@H]1CSSC[C@@H](C(=O)N[C@H](C(N)=O)[C@@H](C)O)NC(=O)[C@H](CCCNC(=N)N)NC(=O)[C@H](Cc2c[nH]cn2)NC(=O)[C@H](CCC(=O)O)NC(=O)CNC(=O)[C@H](Cc2c[nH]c3ccccc23)NC(=O)[C@H](CC(=O)O)NC(=O)[C@H](CCC(N)=O)NC(=O)[C@H](Cc2c[nH]c3ccccc23)NC(=O)[C@H]([C@@H](C)CC)NC1=O [Compound 2] (Ac-ICIWQDWGEHRCT-NH2; disulfide 2-12) | Kd | 0.016 µM |
| CC[C@H](C)[C@H](NC(C)=O)C(=O)N[C@H]1CSSC[C@@H](C(=O)N[C@H](C(=O)NCC(=O)N[C@@H](C)C(=O)N[C@@H](CCC(=O)O)C(=O)N[C@@H](CO)C(N)=O)[C@@H](C)O)NC(=O)[C@H](CCCNC(=N)N)NC(=O)[C@H](Cc2c[nH]cn2)NC(=O)[C@H](CCC(=O)O)NC(=O)CNC(=O)[C@H](Cc2c[nH]c3ccccc23)NC(=O)[C@H](CC(=O)O)NC(=O)[C@H](CCC(N)=O)NC(=O)[C@H](Cc2c[nH]c3ccccc23)NC(=O)[C@H]([C@@H](C)CC)NC1=O [Compound 15] (Ac-ICIWQDWGEHRCTGAES-NH2; disulfide 2-12) | Kd | 0.014 µM |

Exam item: Which Kd is listed for CC[C@H](C)[C@H](NC(C)=O)C(=O)N[C@H]1CSSC[C@@H](C(=O)N[C@H](C(N)=O)[C@@H](C)O)NC(=O)[C@H](CCCNC(=N)N)NC(=O)[C@H](Cc2c[nH]cn2)NC(=O)[C@H](CCC(=O)O)NC(=O)CNC(=O)[C@H](Cc2c[nH]c3ccccc23)NC(=O)[C@H](CC(=O)O)NC(=O)[C@H](CCC(N)=O)NC(=O)[C@H](Cc2cn(C)c3ccccc23)NC(=O)[C@H]([C@@H](C)CC)NC1=O [Compound 4] (Ac-ICI[Trp(1-Me)]QDWGEHRCT-NH2; disulfide 2-12) ?
Marked response: 0.0015 µM
